displacement reference
- tgt: Bcl-2-like protein 10 (Homo sapiens)
- run.description: TR3 peptide-Bcl-B binding displacers, biochemical primary FP assay, phenotype converters (AID 1240);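 further: 0% = Bcl-B with tracer peptide and DMSO and 100% = tracer peptide lacking Bcl-B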
- assay.setup: GST-Bcl-B / FITC-TR3 peptide fluorescence polarization; stronger effect = higher value; compound at 3.75 mg/L
Among all 50,000 compounds or so, about 800 (1.6%) showed an effect of 50% or more. What follows is part of a selection rich in strong results, with near analogues and random picks from the rest.
Record the value in %, omitting the unit from your answer.

Please review the following examples before continuing.
                            chemical_string  measurement
0  COc1cccc(NC(=O)CCN2C(=O)/C(=C/c3ccc(C)cc3)SC2=S)c1         39.1
1   N#C/C(=C/C=C/c1ccco1)C(=O)Nc1cccc(Br)c1         59.3
2  N#C/C(=C\c1c[nH]c2ccccc12)C(=O)Nc1ccc(F)cc1         15.3
3  COc1cccc(/C=C2/SC(=S)N(CCC(=O)Nc3c(C)n(C)n(-c4ccccc4)c3=O)C2=O)c1          7.7

Let us move to another entry and its displacement.
Exam item: Would you mind telling me what displacement value was observed for `Cc1c(NC(=O)CCCN2C(=O)/C(=C/c3ccccc3)SC2=S)c(=O)n(-c2ccccc2)n1C` ?
Marked response: 1.5
